- assay-comment: Steady state PK in rat CIA model
- Assay type: in vivo
- experimental-setup: plasma, PO 3 mg/kg/day, read-out: T½ (converted)
assay-metric: half-life (h)

>>> recorded_measurement("O=C(Nc1nc2cccc(-c3ccc(CN4CCS(=O)(=O)CC4)cc3)n2n1)C1CC1")
5.6

###

- assay-comment: Pharmacokinetic study in rodents
- Assay type: in vivo, rat
- experimental-setup: male, plasma; Sprague-Dawley rat, IV 1 mg/kg; read-out: Vss
- Procedure: Sprague-Dawley rats (male, 5-6 weeks old) were obtained from Janvier (France). Rats were acclimatized for at least 7 days before treatment and were kept on a 12 hr light/dark cycle (0700-1900). […] Plasma concentrations of each test compound were determined by an LC-MS/MS method in which the mass spectrometer was operated in positive electrospray mode. Pharmacokinetic parameters were calculated using Winnonlin® (Pharsight®, United States).
assay-metric: Vd (L/kg)

>>> recorded_measurement("O=C(Nc1nc2cccc(-c3ccc(CN4CCOCC4)cc3)n2n1)C1CC1")
1.46
>>> recorded_measurement("O=C(Nc1nc2cccc(-c3ccc(CN4CCS(=O)(=O)CC4)cc3)n2n1)C1CC1")
1.76
